Target: Mast/stem cell growth factor receptor Kit (Homo sapiens)
Sequence (P10721 whole entry): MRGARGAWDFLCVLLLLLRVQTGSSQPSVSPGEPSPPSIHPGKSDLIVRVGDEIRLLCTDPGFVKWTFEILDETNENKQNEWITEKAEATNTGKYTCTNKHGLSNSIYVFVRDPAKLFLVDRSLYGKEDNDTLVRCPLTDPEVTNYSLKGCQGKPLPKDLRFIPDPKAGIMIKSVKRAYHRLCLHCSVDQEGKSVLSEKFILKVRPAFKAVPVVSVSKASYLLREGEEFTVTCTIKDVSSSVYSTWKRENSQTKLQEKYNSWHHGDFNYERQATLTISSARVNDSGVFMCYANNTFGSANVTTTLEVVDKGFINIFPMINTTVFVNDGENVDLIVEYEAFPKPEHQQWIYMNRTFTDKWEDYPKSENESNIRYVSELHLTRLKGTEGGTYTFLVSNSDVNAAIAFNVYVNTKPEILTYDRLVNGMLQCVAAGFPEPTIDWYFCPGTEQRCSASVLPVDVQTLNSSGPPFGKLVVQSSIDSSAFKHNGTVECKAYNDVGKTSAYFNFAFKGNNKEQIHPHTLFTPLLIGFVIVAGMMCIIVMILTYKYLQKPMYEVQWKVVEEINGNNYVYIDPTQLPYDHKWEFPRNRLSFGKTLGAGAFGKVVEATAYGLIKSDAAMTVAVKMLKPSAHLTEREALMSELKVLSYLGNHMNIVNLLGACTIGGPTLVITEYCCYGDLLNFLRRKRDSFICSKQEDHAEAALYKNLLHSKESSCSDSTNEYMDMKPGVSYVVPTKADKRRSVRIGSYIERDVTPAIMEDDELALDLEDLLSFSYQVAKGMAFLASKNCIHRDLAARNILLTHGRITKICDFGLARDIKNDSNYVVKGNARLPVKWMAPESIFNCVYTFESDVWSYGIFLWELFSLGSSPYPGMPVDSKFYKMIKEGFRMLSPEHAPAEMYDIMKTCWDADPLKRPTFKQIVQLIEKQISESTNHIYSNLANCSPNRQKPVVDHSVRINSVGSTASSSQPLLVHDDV
VALUE TYPE: IC50 (nM)
Output spec: scalar in nM, unitless text.

Ask: Tell me its IC50 on Mast/stem cell growth factor receptor Kit (Homo sapiens): "CC#CCOc1cc(Nc2ncc3ccc4ncn(C(C)C)c4c3n2)ncc1N1CCNCC1"
Result: 93.2

Where do the numbers come from? From BindingDB's records for patent US20230312583.
